Listed next: entries and their corresponding Mean % WT Binding.
- testSystem: human CD33 variant I47Y (human, UniProt P20138 18-364)
- Sequence (P20138 18-364 I47Y limits assumed): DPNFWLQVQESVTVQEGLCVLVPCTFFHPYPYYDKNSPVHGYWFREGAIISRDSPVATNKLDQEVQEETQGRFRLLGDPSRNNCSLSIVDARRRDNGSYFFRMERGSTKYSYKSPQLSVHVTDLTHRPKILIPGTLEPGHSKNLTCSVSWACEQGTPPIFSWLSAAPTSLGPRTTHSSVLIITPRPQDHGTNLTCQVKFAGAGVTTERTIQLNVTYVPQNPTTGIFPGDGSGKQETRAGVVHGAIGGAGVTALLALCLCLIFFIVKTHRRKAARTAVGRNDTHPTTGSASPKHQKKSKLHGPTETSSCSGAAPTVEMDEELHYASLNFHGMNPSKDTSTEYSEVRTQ
- measurementNotes: flow cytometry, IgG on cells expressing the mutant
observedProperty: Mean % WT Binding

INSERT INTO results (binder, testvalue) VALUES
  ('Refmab #2 (antibody, human IgG1, V domains shown, Tested in IgG format; human IgG1 Fc silent (PG-LALA)) VH: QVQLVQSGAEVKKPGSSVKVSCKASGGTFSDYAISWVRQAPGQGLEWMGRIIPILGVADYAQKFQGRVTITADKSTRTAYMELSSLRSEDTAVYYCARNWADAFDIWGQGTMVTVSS VL: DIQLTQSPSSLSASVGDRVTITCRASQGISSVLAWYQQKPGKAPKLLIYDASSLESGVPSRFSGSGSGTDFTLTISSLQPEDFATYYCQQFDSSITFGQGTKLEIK', '1.4 % of WT'),
  ('Refmab #3 (antibody, human IgG1, V domains shown, Tested in IgG format; human IgG1 Fc silent (PG-LALA)) VH: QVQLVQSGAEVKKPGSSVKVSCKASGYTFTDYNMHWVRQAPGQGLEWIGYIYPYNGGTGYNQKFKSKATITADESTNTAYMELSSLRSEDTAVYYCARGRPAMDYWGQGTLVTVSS VL: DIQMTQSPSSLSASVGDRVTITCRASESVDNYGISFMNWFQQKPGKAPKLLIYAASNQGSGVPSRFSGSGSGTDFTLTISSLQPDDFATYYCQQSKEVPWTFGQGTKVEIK', '109 % of WT'),
  ('Refmab #1 (antibody, human IgG1, V domains shown, Tested in IgG format; human IgG1 (Absolute Antibody hP67.6, Cat. No. Ab00283-10.0); also called hP67.6) VH: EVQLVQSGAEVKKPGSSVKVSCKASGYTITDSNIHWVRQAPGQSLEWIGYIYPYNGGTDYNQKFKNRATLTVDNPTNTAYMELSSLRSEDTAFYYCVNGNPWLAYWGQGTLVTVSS VL: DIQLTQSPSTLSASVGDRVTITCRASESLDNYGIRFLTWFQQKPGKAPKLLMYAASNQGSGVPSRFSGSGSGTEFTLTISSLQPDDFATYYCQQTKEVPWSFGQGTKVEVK', '110 % of WT');

Attribution: patent US20260242735A1
